Where do these numbers come from? They come from patent US7981903B2.

Field: IC50. Provide a value for each of the compounds that follow.
assay-target: human IGF1R (hIGF1R) (Homo sapiens, UniProt P08069)
Construct: containing amino acid residues 957-1367 of human IGF1R; made in house; host or cells: Sf9 cells (baculovirus)
Sequence (P08069 957-1367): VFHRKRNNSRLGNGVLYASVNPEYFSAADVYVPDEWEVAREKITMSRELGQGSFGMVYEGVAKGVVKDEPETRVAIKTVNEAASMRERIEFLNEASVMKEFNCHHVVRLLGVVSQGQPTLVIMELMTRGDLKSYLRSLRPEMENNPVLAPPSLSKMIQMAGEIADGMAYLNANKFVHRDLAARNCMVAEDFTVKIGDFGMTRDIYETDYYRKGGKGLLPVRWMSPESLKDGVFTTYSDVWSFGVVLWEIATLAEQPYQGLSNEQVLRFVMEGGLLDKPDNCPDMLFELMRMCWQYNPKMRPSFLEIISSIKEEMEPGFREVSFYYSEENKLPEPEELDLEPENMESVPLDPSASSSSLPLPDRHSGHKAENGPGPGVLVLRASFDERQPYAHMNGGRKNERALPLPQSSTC
protocol-summary: TR-FRET kinase assay of purified hIGF1R
Format: biochemical
experimental-setup: activated hIGF1R 0.5 nM, 10 μM ATP, values given as pIC50 category, read-out: IGF-1R pIC50 (converted)

Would you mind listing IC50 for each of the following compounds?
1. COc1cc2c(cc1Nc1nc(Nc3cccc(F)c3C(N)=O)c3cc[nH]c3n1)NC(=O)CC2(C)C
2. COc1cc2c(cc1Nc1nc(Nc3cccc(F)c3C(N)=O)c3cc[nH]c3n1)N(C(=O)[C@@H]1CCCN1C)CC2
3. COc1cc(N2CCC(N3CCN(CCF)CC3)CC2)ccc1Nc1nc(Nc2cccc(F)c2C(N)=O)c2cc[nH]c2n1
4. COc1cc(OCCN2CCN(C)CC2)ccc1Nc1nc(Nc2cccc(F)c2C(N)=O)c2cc[nH]c2n1
5. COc1cc(N2CCN(C(C)C)CC2)ccc1Nc1nc(Nc2cccc3c2C(=O)NC3)c2cc[nH]c2n1
6. COc1cc(N2CCN(C(C)C)CC2)c(C)cc1Nc1nc(Nc2cc(F)cc(F)c2C(N)=O)c2cc[nH]c2n1
7. COc1cc(CS(C)(=O)=O)ccc1Nc1nc(Nc2ccccc2C(N)=O)c2cc[nH]c2n1

[reply]
["1.26 to 3.98 nM", "5.01 to 200 nM", "1.26 to 3.98 nM", "5.01 to 200 nM", "1.26 to 3.98 nM", "0.251 to 1 nM", "1.26 to 3.98 nM"]

* * *

assay-target: human IGF1R (hIGF1R) (Homo sapiens)
Construct: containing amino acid residues 957-1367 of human IGF1R; made in house; host or cells: Sf9 cells (baculovirus)
protocol-summary: TR-FRET kinase assay of purified hIGF1R
Format: biochemical
experimental-setup: activated hIGF1R 0.5 nM, 10 μM ATP, values given as pIC50 category, read-out: IGF-1R pIC50 (converted)
measurement-type: IC50

compound: Cc1cc2c(cc1Nc1nc(Nc3cccc(F)c3C(N)=O)c3cc[nH]c3n1)N(C(=O)CN(C)C)CCC2
IC50: 1.26 to 3.98 nM
//
compound: COc1cc2c(cc1Nc1nc(Nc3cccc(F)c3C(N)=O)c3c(C)c[nH]c3n1)N(C(=O)CN(C)C)CC2
IC50: 0.251 to 1 nM
//
compound: COc1ccc(CS(C)(=O)=O)cc1Nc1nc(Nc2ccccc2C(N)=O)c2cc[nH]c2n1
IC50: 5.01 to 200 nM
//
compound: COc1cc(C)c(N(C)C(=O)CN(C)C)cc1Nc1nc(Nc2cccc(F)c2C(N)=O)c2cc[nH]c2n1
IC50: 5.01 to 200 nM
//
compound: COc1cc(N2CCN(CC(C)C)CC2)ccc1Nc1nc(Nc2cc(F)ccc2C(N)=O)c2cc[nH]c2n1
IC50: 1.26 to 3.98 nM

Would you mind listing IC50 for each of the following compounds?
1. Cc1ccc(NC(=O)CN(C)C)cc1Nc1nc(Nc2cc(F)ccc2C(N)=O)c2cc[nH]c2n1
2. COc1cc2c(cc1Nc1nc(Nc3cccc(F)c3C(N)=O)c3cc[nH]c3n1)N(C(=O)CN1CCCC1)CC2
3. CCCN1CCN(c2ccc(Nc3nc(Nc4ccccc4C(N)=O)c4cc[nH]c4n3)c(OC)c2)CC1
4. CCCN1CCC=C(c2ccc(Nc3nc(Nc4cc(F)ccc4C(N)=O)c4cc[nH]c4n3)c(OC)c2)C1

[reply]
1.26 to 3.98 nM
1.26 to 3.98 nM
1.26 to 3.98 nM
0.251 to 1 nM

Would you mind listing IC50 for each of the following compounds?
1. CCCN1CCCC(c2ccc(Nc3nc(Nc4cc(F)ccc4C(N)=O)c4cc[nH]c4n3)c(OC)c2)C1 (centres unmarked)
2. COc1cc2c(cc1Nc1nc(Nc3cccc(F)c3C(N)=O)c3cc[nH]c3n1)N(C(=O)CN1CCCC1)CCC2(C)C
3. CCCN1CCC(N2CCc3cc(OC)c(Nc4nc(Nc5cccc(F)c5C(N)=O)c5cc[nH]c5n4)cc3C2)CC1
4. COc1cc(N2CCCN(S(C)(=O)=O)CC2)ccc1Nc1nc(Nc2cccc(F)c2C(N)=O)c2cc[nH]c2n1

[reply]
1. 0.251 to 1 nM
2. 0.251 to 1 nM
3. 5.01 to 200 nM
4. 5.01 to 200 nM

Would you mind listing IC50 for each of the following compounds?
1. COc1cc2c(cc1Nc1nc(Nc3ccc(F)c(F)c3C(N)=O)c3cc[nH]c3n1)N(C(=O)CN(C)C)CC2
2. CCCN1CCC=C(c2ccc(Nc3nc(Nc4ccccc4C(N)=O)c4cc[nH]c4n3)c(C)c2)C1
3. COc1cc(C2=CCCN(C)C2)ccc1Nc1nc(Nc2ccccc2C(N)=O)c2cc[nH]c2n1
4. CCCN1CCC(c2ccc(Nc3nc(Nc4cc(F)ccc4C(N)=O)c4cc[nH]c4n3)c(OC)c2)CC1
5. CCCN1CCC(COc2ccc(Nc3nc(Nc4cccc(F)c4C(N)=O)c4cc[nH]c4n3)c(OC)c2)CC1
6. CNC(=O)c1c(F)cccc1Nc1nc(Nc2cc3c(cc2OC)CCN3C(=O)CN(C)C)nc2[nH]cc(F)c12
7. COc1cc2c(cc1Nc1nc(Nc3cccc(F)c3C(N)=O)c3cc[nH]c3n1)N(C(=O)CN1CCOCC1)CC2

[reply]
["1.26 to 3.98 nM", "5.01 to 200 nM", "0.251 to 1 nM", "0.251 to 1 nM", "1.26 to 3.98 nM", "1.26 to 3.98 nM", "5.01 to 200 nM"]
